These data points were gathered from paper PMC10397247.

Catalogue of interaction score readings, one per entry.
- measured-on: T1, 4H891-AA
- T1 chain: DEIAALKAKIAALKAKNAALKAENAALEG
- experiment-summary: two-hybrid library CCmax;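 further: natural log of median RNA to DNA barcode read ratio; higher means stronger binding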
- assay-conditions: mean of both orientations
observed-property: interaction score

[
  {
    "binder": "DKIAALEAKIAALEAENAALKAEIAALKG [4H2330-AA]",
    "observed-property": "interaction score",
    "recorded-result": -1.54
  },
  {
    "binder": "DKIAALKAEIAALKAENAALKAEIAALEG [4H2649-AA]",
    "observed-property": "interaction score",
    "recorded-result": -1.86
  },
  {
    "binder": "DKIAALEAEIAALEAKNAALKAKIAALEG [4H2109-AA]",
    "observed-property": "interaction score",
    "recorded-result": -1.3
  },
  {
    "binder": "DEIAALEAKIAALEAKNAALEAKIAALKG [4H310-AA]",
    "observed-property": "interaction score",
    "recorded-result": -0.168
  },
  {
    "binder": "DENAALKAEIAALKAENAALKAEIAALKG [4H1626-AA]",
    "observed-property": "interaction score",
    "recorded-result": -1.64
  },
  {
    "binder": "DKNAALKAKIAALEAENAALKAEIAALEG [4H3865-AA]",
    "observed-property": "interaction score",
    "recorded-result": -1.81
  },
  {
    "binder": "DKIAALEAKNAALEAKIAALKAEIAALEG [4H2473-AA]",
    "observed-property": "interaction score",
    "recorded-result": -1.65
  }
]
